Taken from paper PMC6265486.

Biological target: T1, human mtSSB (Homo sapiens, UniProt Q04837 17-148)
T1 sequence: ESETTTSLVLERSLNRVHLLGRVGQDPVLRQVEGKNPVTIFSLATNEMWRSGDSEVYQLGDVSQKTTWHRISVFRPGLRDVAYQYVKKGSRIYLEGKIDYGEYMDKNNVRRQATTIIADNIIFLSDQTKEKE
Experiment: fluorescence anisotropy; 5 mM MgCl2, 50 mM NaCl; tetramers; Anisotropy: 30 mM HEPES-KOH pH 7.5, 1 mM 2-mercaptoethanol, 5 mM MgCl2, 0.01% NP-40, 50 mM NaCl, 20 nM oligo, 20 C. AFM/DREEM: incubation in 20 mM HEPES pH 7.5
Result type: Kd (nM)
Answer in nM, number only, no unit symbol.

For the binder shown here, ATGCTAGCTTGGCTGTGACTTTAAACCTGTCGTGCCAGCT (ssDNA, fluorescein on internal T21) [D1-F 40-nt ssDNA] , give the reported Kd. 1.8
